- system.name: Voltage-gated inwardly rectifying potassium channel KCNH2 (Homo sapiens) (UniProt Q12809)
- Sequence (Q12809 whole entry, looked up): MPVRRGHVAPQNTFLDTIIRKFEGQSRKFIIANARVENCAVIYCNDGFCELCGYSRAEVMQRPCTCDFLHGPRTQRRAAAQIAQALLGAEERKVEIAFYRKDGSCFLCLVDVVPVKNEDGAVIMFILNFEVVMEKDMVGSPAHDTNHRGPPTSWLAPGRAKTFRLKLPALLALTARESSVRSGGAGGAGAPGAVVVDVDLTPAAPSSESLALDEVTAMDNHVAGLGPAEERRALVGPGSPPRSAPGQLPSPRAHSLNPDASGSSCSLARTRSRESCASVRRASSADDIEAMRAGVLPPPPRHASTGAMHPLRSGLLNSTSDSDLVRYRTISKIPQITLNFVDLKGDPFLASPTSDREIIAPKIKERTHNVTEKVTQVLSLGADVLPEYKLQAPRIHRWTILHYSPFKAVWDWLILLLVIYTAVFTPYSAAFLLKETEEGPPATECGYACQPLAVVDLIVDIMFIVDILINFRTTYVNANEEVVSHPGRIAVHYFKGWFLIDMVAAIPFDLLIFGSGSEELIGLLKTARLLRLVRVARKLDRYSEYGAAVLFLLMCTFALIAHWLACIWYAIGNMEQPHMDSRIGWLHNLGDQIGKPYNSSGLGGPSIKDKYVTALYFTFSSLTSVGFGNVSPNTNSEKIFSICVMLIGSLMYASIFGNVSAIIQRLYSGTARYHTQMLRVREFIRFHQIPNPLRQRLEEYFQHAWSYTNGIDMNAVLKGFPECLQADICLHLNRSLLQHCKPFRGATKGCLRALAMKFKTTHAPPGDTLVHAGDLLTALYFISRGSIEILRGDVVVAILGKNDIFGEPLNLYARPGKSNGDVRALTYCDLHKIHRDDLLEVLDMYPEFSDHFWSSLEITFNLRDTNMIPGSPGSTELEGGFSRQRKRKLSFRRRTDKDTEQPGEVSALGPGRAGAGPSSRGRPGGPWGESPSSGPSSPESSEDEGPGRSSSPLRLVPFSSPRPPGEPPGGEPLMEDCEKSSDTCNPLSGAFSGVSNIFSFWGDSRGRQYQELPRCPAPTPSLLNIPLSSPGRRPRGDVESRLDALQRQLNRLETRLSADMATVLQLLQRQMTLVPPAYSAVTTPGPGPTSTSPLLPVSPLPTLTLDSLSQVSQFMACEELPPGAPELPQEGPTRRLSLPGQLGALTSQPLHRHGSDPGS
- assay.details: modulators of KCNH2 ion channel function, cellular (AID 376);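 also: 0% = buffer alone and 100% = reference blocker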
- measurement.context: hERG-expressing cells, channel activity single-concentration screen; concentration not given here
The whole screen tested about 2,000 compounds, of which about 250 (12%) were called active. Rule as the data show it: active = hERG blockade below about -20% or above about 20%; inactive = in between. Shown is part of a subset that was picked to be rich in actives.
Respond with a class label; see active, inactive

Problem: Hi team, can someone confirm the assay call for O=C(O)C[O][Sb][O]CC(=O)O ?
Result: inactive

Problem: Which outcome was assigned to CC(Br)CN(CC(C)Br)c1ccc2c(c1)Cc1ccccc1-2 (stereo unspecified) in this test?
Result: inactive

Problem: Name the outcome recorded for O=c1[nH]cnc2[nH]cc(CN3CCCCC3)c12 in the assay.
Result: inactive

Problem: Returns: the outcome recorded for C(=NCCN1CCOCC1)=NC1CCCCC1 in this assay.
Result: inactive

Problem: Query: recorded result category for O=C(O)Cc1ccc([N+](=O)[O-])cc1[N+](=O)[O-] in this test
Result: inactive

Problem: Hello, I am checking results. What call was entered for COc1cc2c(cc1OC)C13CC[N+]4(C)CC5=CCOC6CC(=O)N2C1C6C5CC34O (stereo unspecified) ?
Result: inactive

Problem: Fill in: this test's call for CN(C)CCCNc1c2c(nc3ccc(Cl)cc13)CCCC2 is ___
Result: active

Problem: Lab log entry: NCCc1c[nH]c2ccc(OC(=O)C(=O)O)cc12 — outcome as called in the assay?
Result: active

Problem: # outcome recorded in this test, key = N#CCCCC[N+]12CN3CN(CN(C3)C1)C2
Result: inactive

Problem: Which outcome was assigned to CC1OC(OC2CC(O)C3(CO)C4C(O)CC5(C)C(C6=CC(=O)OC6)CCC5(O)C4CCC3(O)C2)C(O)C(O)C1O (stereo unspecified) in this test?
Result: inactive

Problem: Answer briefly: the call reported for Cc1ccc(S(=O)(=O)OC2CN3CCC2CC3)cc1 (stereo unspecified) in this assay.
Result: inactive

Problem: Would you mind telling me which call this test gave CC1(C)CC(=N[N-]C(N)=[SH+])CC(C)(C)N1.CC1(C)CC(=N[N-]C(N)=[SH+])CC(C)(C)N1.[Ni] ?
Result: inactive

Problem: Called result for Cc1ccc(S(=O)ON2CCC(C(=O)O)(c3ccccc3)CC2)cc1 (stereo unspecified)
Result: inactive

Problem: Give the logged outcome of this assay for the following compound: Cc1ccc(C2(c3ccc(C)c(O)c3C)CCN(C)CC2)c(C)c1O
Result: active

Problem: State the result this test recorded for c1cncc(CNCCN2CCNCC2)c1 .
Result: inactive

Problem: Which outcome was assigned to O=C(CC(c1ccccc1)c1c(O)c2ccccc2oc1=O)c1ccccc1 (stereo unspecified) in this test?
Result: active

Problem: I'd appreciate the recorded outcome for CC1CCC2N(C1)CC1C3(O)CC45OC6(O)C(O)CCC4(C)C6CCC5C3(O)CC(O)C1(O)C2(C)O (stereo unspecified) from this test.
Result: inactive

Problem: Hi, sorry to bother you, what did the test record for CC(C)c1ccc(C(c2c(O)c3ccccc3oc2=O)c2c(O)c3ccccc3oc2=O)cc1 ?
Result: inactive

Problem: For c1cc(CCN2CCCCC2)ccn1 , which call appears in the assay record?
Result: inactive

Problem: // param item: Oc1ccc(CCNCc2cc3c(cc2Br)OCO3)cc1 ; yields the recorded call
Result: inactive

Problem: Call for entry NNc1nncn1N :
Result: inactive

Problem: I'd appreciate the recorded outcome for CC(CN(C)C)C(C#N)(c1ccccc1)c1ccccc1 (stereo unspecified) from this test.
Result: inactive

Problem: Per the records of this test, what outcome belongs to CN(C)CCC(C#N)(c1ccccc1)c1ccccc1 ?
Result: inactive

Problem: So what was the verdict on CC1CCC2(NC1)OC1CC3C4CC=C5CC(O)CCC5(C)C4CCC3(C)C1C2C (stereo unspecified) in this test?
Result: inactive

Problem: Please share the test call associated with ClCC[N+]12CC[N+](CCCl)(CC1)C2 (tested in a mixture with another compound) .
Result: inactive

Problem: Just curious, what result did COc1ccc(CC2C(=O)NC(C)C(=O)N(C)C3C(=O)N(C)C(Cc4ccc(O)c(c4)Oc4ccc(cc4)C3O)C(=O)NC(C)C(=O)NC(C)C(=O)N2C)cc1 (stereo unspecified) get here?
Result: inactive

Problem: Query: recorded result category for C[As+](C)(c1ccc(Br)c([N+](=O)[O-])c1)c1ccc(Br)c([N+](=O)[O-])c1.O=[N+]([O-])[O-] in this test
Result: inactive

Problem: Hi, sorry to bother you, what did the test record for CC1=NN(c2ccccc2)C(=O)C1N=Nc1ccc([As](=O)(O)O)c(O)c1 (stereo unspecified) ?
Result: active

Problem: Assay outcome for O=C(O)CC1OCC=C2CN3CCC45c6ccccc6NC4C1C2CC35 (stereo unspecified) : what was it?
Result: inactive

Problem: In this assay, the call recorded for C[N+]1([O-])C2CCC1CC(OC(=O)C(CO)c1ccccc1)C2 (stereo unspecified) was what?
Result: inactive

Problem: Recorded test outcome, item CCC1CN2CCc3cc(OC)c(OC)cc3C2CC1CC1NCCc2c1[nH]c1ccc(O)cc21 (stereo unspecified)
Result: active

Problem: GET /call?item= NC(CCl)=NC1CN2CCC1CC2 (stereo unspecified) returns the recorded outcome of this test.
Result: inactive

Problem: Record request — test call for CC(C)CC(=O)CC(O)C(Cl)(Cl)Cl (stereo unspecified)
Result: inactive

Problem: Identify the outcome logged in this assay for the compound shown: Oc1cccc2cccnc12
Result: active

Problem: Entry CCc1ccc(CCN2CCCCC2)nc1 : call = ?
Result: inactive

Problem: // param item: O=C(c1ccccc1)C1C(c2ccccc2[N+](=O)[O-])N1C1CCCCC1 (stereo unspecified) ; yields the recorded call
Result: active

Problem: Each compound tested received a call. Report the one for CC(Br)(C(=O)O)C(Br)C(=O)O (stereo unspecified) .
Result: inactive

Problem: # lookup: test call for Nc1nc(N)c(N=Nc2ccc([As](=O)(O)O)cc2)c(=O)[nH]1
Result: inactive

Problem: Please share the test call associated with CCSCCC(N)C(=O)O (stereo unspecified) .
Result: inactive

Problem: Name the outcome recorded for CCC1=C(CC2NCCc3cc(OC)c(OC)cc32)CC2c3ccccc3CCN2C1 (stereo unspecified) in the assay.
Result: active

Problem: What outcome does the record of this test show for CCNC(C)(C)C(SS)c1ccc(Br)cc1 (stereo unspecified) ?
Result: inactive

Problem: # lookup: test call for Nc1ccccc1O.O.O=C(O)C1[O][Sb][O]C1C(=O)O (stereo unspecified)
Result: inactive

Problem: // param item: Cc1ncc([N+](=O)[O-])n1CCN=[N+]=[N-] ; yields the recorded call
Result: inactive

Problem: Recorded call for CC(Br)C(=O)NC(CO)C(=O)O (stereo unspecified) ?
Result: inactive

Problem: Just curious, what result did O=[As](O)(O)c1ccc2nc3cc([As](=O)(O)O)ccc3nc2c1 get here?
Result: inactive

Problem: Just curious, what result did O=C(O)c1cccc([As]=[As]c2cccc(C(=O)O)c2)c1 (stereo unspecified) get here?
Result: inactive

* * *

- system.name: Voltage-gated inwardly rectifying potassium channel KCNH2 (Homo sapiens)
- assay.details: modulators of KCNH2 ion channel function, cellular (AID 376);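 also: 0% = buffer alone and 100% = reference blocker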
- measurement.context: hERG-expressing cells, channel activity single-concentration screen; concentration not given here
Screen size: about 2,000 compounds; about 250 (12%) were called active. The sample as a whole holds a higher share of actives than the screen did.
Can you tell me hERG blockade for the items I'm about to list?
Please give a number only; it is taken to be in %.

Problem: Retrieve hERG blockade on Voltage-gated inwardly rectifying potassium channel KCNH2 (Homo sapiens); query NC1(P(=O)(O)O)CCCCC1
Result: -4.89

Problem: Give hERG blockade for this entry on Voltage-gated inwardly rectifying potassium channel KCNH2 (Homo sapiens): COc1cc2ccccc2c2cc([N+](=O)[O-])oc12
Result: 15.9

Problem: For Voltage-gated inwardly rectifying potassium channel KCNH2 (Homo sapiens), give hERG blockade of the listed molecule: C=C(C)c1ccccc1 (tested in a mixture with another compound)
Result: 1.7

* * *

Exercise: state measured hERG blockade for each of the compounds provided.
- system.name: Voltage-gated inwardly rectifying potassium channel KCNH2 (Homo sapiens) (UniProt Q12809)
- assay.details: modulators of KCNH2 ion channel function, cellular (AID 376);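 also: 0% = buffer alone and 100% = reference blocker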
- measurement.context: hERG-expressing cells, channel activity single-concentration screen; concentration not given here
In all, about 2,000 compounds went through this assay and about 250 (12%) were called active. The entries come from a sample that favours actives as a whole.
Numbers only here, please. The scale is %.

Problem: Indicate its recorded hERG blockade; the compound in question is CC12CN(CC[N+](C)(C)C)CC1(C)C1CCC2O1 (stereo unspecified)
Result: -0.461

Problem: Please supply the value of reported hERG blockade for the item O=C(Nc1cc[c]([Sb](=[O])([OH])[OH])cc1)c1ccccc1
Result: 5.03

Problem: Could you please provide reported hERG blockade for NC(CP(=O)(O)O)C(=O)O (stereo unspecified) ? Thanks!
Result: 0.269

Problem: Query hERG blockade for CC(O)CN(CCN(CC(C)O)CC(C)O)CC(C)O.O=[N+]([O-])[O-].[Cu+2] (stereo unspecified)
Result: 13.4

Problem: Please give the documented hERG blockade of CCC1(O)C(=O)OCc2c1cc1n(c2=O)Cc2cc3c(NC(=O)CN)cccc3nc2-1 (stereo unspecified)
Result: 7.93

Problem: Consider the compound CCC1(CCSC(=N)N)C(=O)NC(=O)NC1=O and give its recorded hERG blockade.
Result: -24.7

Problem: Report measured hERG blockade; entry is Cc1ccc(O)cc1 (tested in a mixture with another compound)
Result: -3.08

Problem: Query hERG blockade for NCC(O)CSP(=O)(O)O (stereo unspecified)
Result: -13.3

Problem: Identify the reported hERG blockade for the following entry. O=C(CCN1CC2CCC(CC2)C1)c1cccs1
Result: 29.2

Problem: Consider the compound COC(=O)c1c(C)ccc2c(O)c3c(cc12)C(=O)c1c2c(cc(O)c1C3=O)C1(C)OC(C)(O2)C(O)C(N(C)C)C1O (stereo unspecified) and give its recorded hERG blockade.
Result: 18.8

Problem: Identify the reported hERG blockade for the following entry. O=C(O)C(Br)C(Br)C(=O)O (stereo unspecified)
Result: 10.9
